measured target: ALK (Homo sapiens, UniProt Q9UM73)
Construct: host or cells: baculovirus expression system
Sequence (Q9UM73 19-1620): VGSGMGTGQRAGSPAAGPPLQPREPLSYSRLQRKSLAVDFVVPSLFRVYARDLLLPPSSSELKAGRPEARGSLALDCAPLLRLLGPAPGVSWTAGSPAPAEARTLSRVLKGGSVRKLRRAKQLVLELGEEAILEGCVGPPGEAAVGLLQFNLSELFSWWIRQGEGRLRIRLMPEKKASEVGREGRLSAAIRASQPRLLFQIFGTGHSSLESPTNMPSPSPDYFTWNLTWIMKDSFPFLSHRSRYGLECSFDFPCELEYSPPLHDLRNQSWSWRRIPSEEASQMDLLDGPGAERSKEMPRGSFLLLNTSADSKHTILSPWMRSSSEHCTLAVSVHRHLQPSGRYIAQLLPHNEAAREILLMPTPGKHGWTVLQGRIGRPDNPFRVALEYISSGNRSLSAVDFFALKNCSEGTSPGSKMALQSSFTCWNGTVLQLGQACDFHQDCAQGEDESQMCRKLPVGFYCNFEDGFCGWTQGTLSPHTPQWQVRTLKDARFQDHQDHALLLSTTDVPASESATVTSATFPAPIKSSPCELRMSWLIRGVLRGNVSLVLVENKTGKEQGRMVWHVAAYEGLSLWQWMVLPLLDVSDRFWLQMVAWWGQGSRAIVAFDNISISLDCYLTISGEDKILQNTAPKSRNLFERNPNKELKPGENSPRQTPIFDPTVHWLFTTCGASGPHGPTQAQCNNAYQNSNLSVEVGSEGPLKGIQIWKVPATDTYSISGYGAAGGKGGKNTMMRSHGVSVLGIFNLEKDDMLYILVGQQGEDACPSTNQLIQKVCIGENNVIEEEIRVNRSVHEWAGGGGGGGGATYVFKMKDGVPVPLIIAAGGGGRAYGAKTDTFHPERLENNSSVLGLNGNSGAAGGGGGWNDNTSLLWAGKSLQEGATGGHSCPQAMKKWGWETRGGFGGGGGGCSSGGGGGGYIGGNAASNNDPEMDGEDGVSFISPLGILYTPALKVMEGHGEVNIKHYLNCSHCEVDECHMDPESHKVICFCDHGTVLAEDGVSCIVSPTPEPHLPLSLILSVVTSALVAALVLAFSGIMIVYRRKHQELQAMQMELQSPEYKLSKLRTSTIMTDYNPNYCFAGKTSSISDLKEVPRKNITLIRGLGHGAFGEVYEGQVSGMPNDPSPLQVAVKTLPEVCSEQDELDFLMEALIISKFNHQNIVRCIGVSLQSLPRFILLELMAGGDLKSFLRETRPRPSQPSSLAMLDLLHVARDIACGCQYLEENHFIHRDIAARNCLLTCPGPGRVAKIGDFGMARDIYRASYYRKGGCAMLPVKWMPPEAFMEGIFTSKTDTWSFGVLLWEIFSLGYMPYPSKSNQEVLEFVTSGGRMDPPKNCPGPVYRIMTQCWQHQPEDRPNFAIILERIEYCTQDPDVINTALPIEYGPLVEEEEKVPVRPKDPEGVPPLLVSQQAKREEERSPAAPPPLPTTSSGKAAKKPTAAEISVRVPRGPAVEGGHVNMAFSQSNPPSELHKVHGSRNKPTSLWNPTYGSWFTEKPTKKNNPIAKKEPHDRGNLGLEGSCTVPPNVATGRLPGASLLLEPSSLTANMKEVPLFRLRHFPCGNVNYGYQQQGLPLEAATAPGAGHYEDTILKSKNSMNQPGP
experiment description: ALK Kinase Assay (ELISA/TRF, PLC-γ substrate)
Assay type: biochemical
condition context: ALK Kinase Inhibition; read-out: ALK Potency
pIC50: −log10 of the molar value.
Assignment: determine reported pIC50 for the given molecules.

# molecule, reported result
rows = [
    ("COc1ccccc1-c1ccc2cnc(Nc3ccc(C(C)C)c(NC(C)=O)c3)nn12 [Example 301]", "6.00 to 7.00"),
    ("CC(C)(C)NS(=O)(=O)c1cccc(-c2ccc3cnc(Nc4ccc(OCCN5CCCC5)cc4)nn23)c1 [Example 118]", "6.00 to 7.00"),
]

Consider COc1cc(N2CCC(N3CCOCC3)CC2)ccc1Nc1ncc2ccc(-c3ccccc3F)n2n1 [Example 1473] . Its measured pIC50 is > 7.00

----------
Assignment: determine reported IC50 for the given molecules.
measured target: ALK (Homo sapiens, UniProt Q9UM73)
Construct: host or cells: baculovirus expression system
experiment description: ALK Kinase Assay (ELISA/TRF, PLC-γ substrate)
Assay type: biochemical
condition context: ALK kinase inhibition, 1 μM ATP; read-out: ALK Potency
Experimental: Briefly, each 96-well plate was coated with […] of 10 μg/mL substrate (phospholipase C-γ) in Tris-buffered saline (TBS). […] The reaction was initiated by adding enzyme (30 ng/ml ALK) and was allowed to proceed at 37° C. for 15 minutes. Detection of the phosphorylated product was performed by adding 100 μl/well of Eu—N1 labeled PT66 antibody (Perkin Elmer # AD0041). Data analysis was performed using ActivityBase (IDBS, Guilford, UK). […]

# molecule, measured target, reported result
measured = [
    ("CN(c1ccccc1-c1ccc2cnc(Nc3ccc4ncn(CCN5CCOCC5)c4c3)nn12)S(C)(=O)=O", "ALK (Homo sapiens, UniProt Q9UM73)", "1000 to 10000 nM"),
]

Hi there! I need IC50 for each item below, if you can.
1. COc1ccccc1-c1ccc2cnc(Nc3ccn(CCN4CCOCC4)n3)nn12
2. CS(=O)(=O)c1ccc(-c2ccc3cnc(Nc4ccc5nc[nH]c5c4)nn23)cc1

Response given:
100 to 1000 nM
100 to 1000 nM

----------
Assignment: determine reported IC50 for the given molecules.
measured target: JAK2 (Homo sapiens)
Construct: host or cells: baculovirus expression system
Sequence (O60674 whole entry): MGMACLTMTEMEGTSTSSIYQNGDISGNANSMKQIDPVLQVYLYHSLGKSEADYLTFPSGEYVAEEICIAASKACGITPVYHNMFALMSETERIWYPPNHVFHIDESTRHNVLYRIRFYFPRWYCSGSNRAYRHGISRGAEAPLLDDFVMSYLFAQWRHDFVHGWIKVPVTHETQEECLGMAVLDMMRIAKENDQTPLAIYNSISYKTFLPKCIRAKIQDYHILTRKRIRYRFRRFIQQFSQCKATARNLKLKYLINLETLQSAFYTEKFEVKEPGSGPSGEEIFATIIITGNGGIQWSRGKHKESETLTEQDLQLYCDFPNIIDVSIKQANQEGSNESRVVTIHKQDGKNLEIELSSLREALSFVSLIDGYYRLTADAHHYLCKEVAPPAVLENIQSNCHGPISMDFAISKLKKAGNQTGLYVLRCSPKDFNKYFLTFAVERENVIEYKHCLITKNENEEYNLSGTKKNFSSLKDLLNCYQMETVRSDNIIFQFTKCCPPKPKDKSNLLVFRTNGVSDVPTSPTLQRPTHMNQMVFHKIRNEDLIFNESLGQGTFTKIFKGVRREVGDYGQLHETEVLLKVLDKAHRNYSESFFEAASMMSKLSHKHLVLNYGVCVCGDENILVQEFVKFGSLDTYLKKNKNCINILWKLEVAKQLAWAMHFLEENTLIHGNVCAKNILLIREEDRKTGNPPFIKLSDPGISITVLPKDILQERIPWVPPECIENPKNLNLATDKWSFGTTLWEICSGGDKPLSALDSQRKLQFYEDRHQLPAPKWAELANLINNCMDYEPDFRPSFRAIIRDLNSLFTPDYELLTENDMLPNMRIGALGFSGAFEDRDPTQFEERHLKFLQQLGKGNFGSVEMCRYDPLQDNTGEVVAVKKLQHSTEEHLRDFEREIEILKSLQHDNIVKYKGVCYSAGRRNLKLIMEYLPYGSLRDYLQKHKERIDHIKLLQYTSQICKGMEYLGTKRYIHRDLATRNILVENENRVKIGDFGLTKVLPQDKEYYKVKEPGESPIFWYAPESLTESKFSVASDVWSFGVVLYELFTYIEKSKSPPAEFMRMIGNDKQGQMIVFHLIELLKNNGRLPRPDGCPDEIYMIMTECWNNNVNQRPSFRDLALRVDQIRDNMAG
experiment description: Recombinant Human JAK2 Kinase Assay (TRF)
Format: biochemical
condition context: JAK2 kinase inhibition, 0.2 μM ATP; read-out: JAK2 Potency

Record excerpt, results attached:
# molecule, reported result
measured = [
    ("CN(c1ccccc1-c1ccc2cnc(Nc3ccc(Cn4ccnc4)cc3)nn12)S(C)(=O)=O", "< 0.1 µM"),
    ("COc1cc(C2CCN(CC(=O)OC(C)(C)C)CC2)ccc1Nc1ncc2ccc(-c3ccccc3OC)n2n1", "1 to 10 µM"),
    ("OCCN1CCN(c2ccc(Nc3ncc4ccc(-c5cccc(Cl)c5)n4n3)cc2)CC1", "< 0.1 µM"),
]

--- query ---
Entry COc1cc([C@@]2(O)CCN(C(=O)OC(C)(C)C)C[C@@H]2O)ccc1Nc1ncc2ccc(-c3ccccc3OC)n2n1 (racemic) : IC50 on JAK2 (Homo sapiens) = 0.1 to 1 µM

----------
measured target: ALK (Homo sapiens, UniProt Q9UM73)
Construct: host or cells: baculovirus expression system
experiment description: ALK Kinase Assay (ELISA/TRF, PLC-γ substrate)
Format: biochemical
condition context: ALK Kinase Inhibition; read-out: ALK Potency
Assignment: determine reported IC50 for the given molecules.

Record excerpt, results attached:
# molecule, measured target, IC50
measured = [
    ("CS(=O)(=O)c1cccc(-c2ccc3cnc(Nc4ccc(N5CCN(CCO)CC5)cc4)nn23)c1", "ALK (Homo sapiens, UniProt Q9UM73)", "100 to 1000 nM"),
    ("COc1cc(N2CCC(N3CCOCC3)CC2)ccc1Nc1ncc2ccc(-c3ccccc3OC(F)(F)F)n2n1", "ALK (Homo sapiens, UniProt Q9UM73)", "< 100 nM"),
    ("COc1cc(N2CCCC(N3CCOCC3)C2)ccc1Nc1ncc2ccc(-c3ccccc3OC)n2n1 (centres unmarked)", "ALK (Homo sapiens, UniProt Q9UM73)", "< 100 nM"),
    ("FC(F)(F)c1cc(-c2ccc3cnc(Nc4ccc(N5CCOCC5)cc4)nn23)ccc1Cl", "ALK (Homo sapiens, UniProt Q9UM73)", "1000 to 10000 nM"),
]

--- query ---
Consider `CC(=O)N1CCCC(C)(C)c2ccc(Nc3ncc4ccc(-c5ccccc5N(C)S(C)(=O)=O)n4n3)cc21` . Its measured IC50 is 100 to 1000 nM
